- Assay System: wild-type BRCA1 BRCT domain (human, UniProt P38398)
- Sequence (P38398 1646-1859): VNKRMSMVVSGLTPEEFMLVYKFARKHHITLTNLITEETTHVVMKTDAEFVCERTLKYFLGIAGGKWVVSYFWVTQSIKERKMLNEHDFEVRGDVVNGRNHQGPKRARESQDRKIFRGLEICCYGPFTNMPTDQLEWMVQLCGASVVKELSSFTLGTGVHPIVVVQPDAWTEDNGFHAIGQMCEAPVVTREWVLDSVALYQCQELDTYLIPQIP
- Protocol Description: fluorescence polarisation
pKd: −log10 of the molar value. Non-standard residues stand in square brackets, D forms with d. pS = N[C@@H](COP(=O)(O)O)C(=O)O
Recorded Metric: pKd

                                     binder  readout_value
0  Fluorescein-GGSRST[pS]PTFNK-NH2 [fluorescent BACH1-derived peptide (Fluorescein-GGSRSTpSPTFNK-NH2)]           5.92

Provenance of the data: paper PMC3100782
